tested on: native geph; assay: µSPOT peptide microarray binding assay with native geph from mouse brain lysate; conditions: µSPOT peptide microarray, GlyRβ full positional scan, native geph from mouse brain lysate; intensity normalised to wild-type sequence DLRSNDFSIVGSLPR (=1)
Classes by Native geph Binding Intensity [norm.]: bucket A = under 0.4 norm., bucket B = from 0.4 norm. up to 1 norm., bucket C = 1 norm. and over

Sort DLRHNDFSIVGSLPR [GlyRβ_Full_Positional_Scan_073] into one of the categories.
bucket B

Please indicate the class for DLRANDFSIVGSLPR [GlyRβ_Full_Positional_Scan_061] based on its Native geph Binding Intensity [norm.].
bucket C

# classify by Native geph Binding Intensity [norm.] band: DLRSNDVSIVGSLPR [GlyRβ_Full_Positional_Scan_126, GlyR β 414-428 variant F420V]
bucket A

Quick check: band for DLRSNDFKIVGSLPR [GlyRβ_Full_Positional_Scan_154, GlyR β 414-428 variant S421K]
bucket A

Field: class (Native geph Binding Intensity [norm.]) — entry: DLRSNWFSIVGSLPR [GlyRβ_Full_Positional_Scan_108]
bucket A

Class (by measured Native geph Binding Intensity [norm.]) for VLRSNDFSIVGSLPR [GlyRβ_Full_Positional_Scan_006]
bucket B

Looking at DERSNDFSIVGSLPR [GlyRβ_Full_Positional_Scan_031] , which class would you pick?
bucket B

Note: place this sequence into its band. Item: DLVSNDFSIVGSLPR [GlyRβ_Full_Positional_Scan_046]
bucket C

Tag the class for HLRSNDFSIVGSLPR [GlyRβ_Full_Positional_Scan_013]
bucket B

Into which bin does this sequence go? DLRSNDFSIVESLPR [GlyRβ_Full_Positional_Scan_211, GlyR β 414-428 variant G424E]
bucket A

Band assignment needed for YLRSNDFSIVGSLPR [GlyRβ_Full_Positional_Scan_009] please.
bucket B

Which class holds DLASNDFSIVGSLPR [GlyRβ_Full_Positional_Scan_041] ?
bucket C

Band for the recorded Native geph Binding Intensity [norm.] of DLSSNDFSIVGSLPR [GlyRβ_Full_Positional_Scan_055] ?
bucket C

Form field 'band' for DLRSNDFSRVGSLPR [GlyRβ_Full_Positional_Scan_172, GlyR β 414-428 variant I422R]
bucket A

Band assignment needed for DLRSNDFQIVGSLPR [GlyRβ_Full_Positional_Scan_160, GlyR β 414-428 variant S421Q] please.
bucket B

Consider DLRKNDFSIVGSLPR [GlyRβ_Full_Positional_Scan_074] . To which Native geph Binding Intensity [norm.] class does it belong?
bucket C

* * *

test system: gephE; test: µSPOT peptide microarray binding assay with recombinant gephE; details: µSPOT full positional scan of GlyRβ 15-mer DLRSNDFSIVGSLPR; intensity normalised to wild-type sequence (= 1)
Cut-off 0.8 norm. on gephE Binding Intensity [norm.], inclusive. At or above means YES; below means NO.

| residueString | classLabel |
| --- | --- |
| DLRSNDFSIVGLLPR [GlyRβ_Full_Positional_Scan_224] | NO |
| DLRSNDFSIVGSLPR [GlyRβ_Full_Positional_Scan_235] | YES |
| DLRSNDFSIVGSLPC [GlyRβ_Full_Positional_Scan_297] | YES |

Now consider a different sequence.
Say whether DLRSNDFSIVGSMPR [GlyRβ_Full_Positional_Scan_258] shows gephE Binding Intensity [norm.] of 0.8 norm. or more.
NO
